Tested on: SNB-75 CNS
assayComment: NCI tumour cell line growth inhibition, 48 h
metricName: TGI (µM)

[[record]]
compound = "COc1cccc2c(Nc3ccc(C(=O)NCCNCCO)cc3)cc(-c3ccccc3)nc12"
censorsymbol = "="
resultnumber = 34.9

[[record]]
compound = "COC1CCC2C(=O)CCCC2O1 (stereo not given)"
censorsymbol = ">"
resultnumber = 100

[[record]]
compound = "COc1ccc2c(c1)nc1n2C(c2c(F)cccc2F)SC1 (stereo not given)"
censorsymbol = ">"
resultnumber = 100

[[record]]
compound = "COc1ccc(/C=C/C(=O)c2cccc(C(=O)/C=C/c3ccc(OC)c(OC)c3)n2)cc1OC"
censorsymbol = ">"
resultnumber = 100

[[record]]
compound = "Cc1c(C(=O)CCl)c(=O)n(-c2ccccc2)n1C"
censorsymbol = "="
resultnumber = 29.5

[[record]]
compound = "CC(C)/C(Cl)=N/OC(NC(=O)Nc1ccc(Cl)c(Cl)c1)(C(F)(F)F)C(F)(F)F"
censorsymbol = "="
resultnumber = 31.3

[[record]]
compound = "CSC1=C(C)S/C(=C\\c2ccc(/C=C3\\SC(C)=C(SC)S3)cc2)S1"
censorsymbol = ">"
resultnumber = 100

[[record]]
compound = "N/C(=N\\Nc1cccc(Cl)c1)c1cccnc1"
censorsymbol = "="
resultnumber = 99.7

[[record]]
compound = "CC(C)OP(=O)(OC(C)C)c1nn(-c2ccc([N+](=O)[O-])cc2)c(=N)s1"
censorsymbol = "="
resultnumber = 95.5

[[record]]
compound = "COC(=O)C/C(C)=C/[C@@H](O)[C@H]1O[C@@H]2CC/C(Cl)=C/C/C=C(/C)[C@H](OC(C)=O)CC(=O)O[C@@H]1C2"
censorsymbol = "="
resultnumber = 6.14

